assay: Cmax in Sprague-Dawley rat at 10 mg/kg, po measured upto 24 hrs by UPLC-MS/MS analysis; type: ADME, organism-based; parameters: time < 24 hrs, dose 10 mg/kg, route po; conditions: in vivo
measured metric: Cmax (ng/mL)
Just the number in ng/mL, nothing appended.

Provide one value: measured Cmax of `COc1cc2nccc(Oc3ccc(NC(=O)c4nn(-c5ccc(C)cc5)c(=O)cc4C)cc3)c2cc1OC`
1870

###

assay: Half life in Sprague-Dawley rat at 10 mg/kg, iv measured upto 24 hrs by UPLC-MS/MS analysis; format: ADME, organism-based; conditions: in vivo
measured metric: half-life (h)
All answers are understood in h, so give the number only.

Supply recorded half-life for `COc1cc2nccc(Oc3ccc(NC(=O)c4nn(-c5ccc(C)cc5)c(=O)cc4C)cc3)c2cc1OC` here.
1.15

###

tested on: THP-1; test: Antiinflammatory activity against human THP-1 cells assessed as inhibition of LPS-stimulated IL6 release measured after 30 mins by ELISA; type: functional, cell-based; settings: THP-1, 0.5 h
measured metric: IC50 (nM)
Please reply with the bare figure in nM and do not write the unit itself.

Hello, please tell me recorded IC50 for this one: `COc1cc2nccc(Oc3ccc(NC(=O)c4nn(-c5ccc(C)cc5)c(=O)cc4C)cc3)c2cc1OC`
220

###

experiment: Cytotoxicity against mouse J774A.1 cells assessed as cell viability at 10 uM measured after 24 hrs incubation by MTT assay; format: toxicity, cell-based, J774.A1; conditions: read-out: Activity
measured metric: viability at 24 h, 10 µM

Please report viability at 24 h, 10 µM for the following compound: `COc1cc2nccc(Oc3ccc(NC(=O)c4nn(-c5ccc(C)cc5)c(=O)cc4C)cc3)c2cc1OC`
> 80%

###

assay: Half life in Sprague-Dawley rat at 10 mg/kg, po measured upto 24 hrs by UPLC-MS/MS analysis; format: ADME, organism-based; details: in vivo
measured metric: half-life (h)
Write the value in h as a bare number.

Dear colleague, please send me the reported half-life for `COc1cc2nccc(Oc3ccc(NC(=O)c4nn(-c5ccc(C)cc5)c(=O)cc4C)cc3)c2cc1OC` when you can.
1.16

Data provenance is ChEMBL document CHEMBL5321290.
